Ref: the supplement of paper PMC6555819

# Test system: THRa homodimer (NR concentration 90 nM)
# Assay explanation: PBM binding z-score (relative to random genomic background probes); higher = stronger binding; sequences stand for … in GC…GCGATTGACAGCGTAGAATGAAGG
Quick rule for you: PBM binding z-score at 0.07 or higher means yes, lower means no.

Recorded results for 6 sequences are shown here.
Sequence string	Class
CCAGACAGCTGAGAAGGTAACTCAGCCTCGATTA	no
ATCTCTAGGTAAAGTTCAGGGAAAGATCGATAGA	yes
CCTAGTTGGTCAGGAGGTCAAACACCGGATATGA	yes
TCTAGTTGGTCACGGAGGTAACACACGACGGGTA	yes
GCGTGTAGATCAAGGTTAAGAAAGACTAAGCTAA	no
TGTCAAAGTTCAAAGGTAACGTAAGTATCCACAC	yes

q: Can "TCTTGTAGATCAACATGAGGTTAAGAAAGATCGA" be said to have PBM binding z-score at or above 0.07?
a: yes

q: Check the entry "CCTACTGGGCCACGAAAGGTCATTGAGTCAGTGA" : does PBM binding z-score equal or exceed 0.07?
a: yes

q: Test whether the sequence "TCAGACAGGTGAAGGAAACTCAGGTACGCAGTCG" records PBM binding z-score of 0.07 or higher.
a: yes

q: Could you please find out whether "GCTAGCAGGCCATGTGGGTCACTCAATGACGGGC" has PBM binding z-score that meets 0.07 or exceeds it?
a: no
